- systemTested: T1, human hepcidin (mature, 25 amino acids) (human, mono-biotinylated in the ELISAs and on the KinExA beads (site not stated); unlabelled in solution and on the BIAcore chip)
- T1 construct: the form is named in each assay field; also called rhuHepc; rhHepc
- T1 peptide: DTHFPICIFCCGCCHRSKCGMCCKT
- experimentalDetails: ELISA, mono-biotinylated human hepcidin on Neutravidin plate, pH 6.0
The entries below come with measured EC50 values attached.
Provide the reading as a plain figure in ng/mL.

Worked cases, EC50 given:
binder: 15E1 N57H A107H (antibody, V domains shown, Double histidine mutant of 15E1; constant regions as in wild-type 15E1; also called A107H (heavy chain)/N57H (heavy chain)) VH: QVQLVESGGGVVQPGRSLRLSCAASGFTFSSYGMHWVRQAPGKGLEWVAVIWYAESHKYYADSVKGRFTISRDNSKNTLYLQMNSLRAEDTAVYYCARAQEGIAPDHFDIWGQGTMVTVSS VL: SYELTQPPSVSVSPGQTATITCSGDKLGERYACWYQQRPGQSPVLVIYQDSKRPSGIPERFSGSNSGNTATLTISGTQAMDEADYFCQAWYSSTNVLFGGGTKLTVL
valueType: EC50
quantitativeResult: 75.6

binder: antibody 15E1 (wild type) (antibody, V domains shown, Human antibody) VH: QVQLVESGGGVVQPGRSLRLSCAASGFTFSSYGMHWVRQAPGKGLEWVAVIWYAESNKYYADSVKGRFTISRDNSKNTLYLQMNSLRAEDTAVYYCARAQEGIAPDAFDIWGQGTMVTVSS VL: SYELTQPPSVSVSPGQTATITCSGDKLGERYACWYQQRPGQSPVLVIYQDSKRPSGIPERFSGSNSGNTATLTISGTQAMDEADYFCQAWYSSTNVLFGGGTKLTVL
valueType: EC50
quantitativeResult: 2.3

Switching to the query record.
Problem: Form field: reported EC50 of 15E1 L27H (antibody, V domains shown, Histidine mutant of 15E1, transiently expressed in 293-6E cells; constant regions as in wild-type 15E1; also called L27H (light chain)) VH: QVQLVESGGGVVQPGRSLRLSCAASGFTFSSYGMHWVRQAPGKGLEWVAVIWYAESNKYYADSVKGRFTISRDNSKNTLYLQMNSLRAEDTAVYYCARAQEGIAPDAFDIWGQGTMVTVSS VL: SYELTQPPSVSVSPGQTATITCSGDKHGERYACWYQQRPGQSPVLVIYQDSKRPSGIPERFSGSNSGNTATLTISGTQAMDEADYFCQAWYSSTNVLFGGGTKLTVL
Solution: 6.5

Hey, just so you know, these numbers are from patent US20110150888A1.
